test: Phase I trial of oral PCLX-001: plasma pharmacokinetics, noncompartmental analysis (Phoenix WinNonlin 8.3); assay type: in vivo, human; conditions: human, plasma, po, 20 mg, Table 1A; Patient 115-002-001 (Patient 1); Day 15; 20 mg oral daily
reportedEndpoint: Cmax

• Cc1c(NS(=O)(=O)c2c(Cl)cc(-c3ccnc(N4CCNCC4)c3)cc2Cl)c(CC(C)C)nn1C [PCLX-001] = 479 ng/mL

====

experiment: Phase I trial of oral PCLX-001: plasma pharmacokinetics, noncompartmental analysis (Phoenix WinNonlin 8.3); assay type: in vivo, human; conditions: human, plasma, po, 20 mg, Table 1A; Patient 115-002-001 (Patient 1); Day 1; 20 mg oral daily; read-out: AUClast or AUCtau
reportedEndpoint: AUC(0-t) (ng·h/mL)

• Cc1c(NS(=O)(=O)c2c(Cl)cc(-c3ccnc(N4CCNCC4)c3)cc2Cl)c(CC(C)C)nn1C [PCLX-001] = 1710

====

Assay: Phase I trial of oral PCLX-001: plasma pharmacokinetics, noncompartmental analysis (Phoenix WinNonlin 8.3)
Format: in vivo, human
Details: human, plasma, oral, 140 mg, Table 5; Mean (CV); on Pantoprazole; 140 mg; N 2; Day 1; read-out: AUClast
From the text: The clinical trial is entitled “Phase I Trial of PCLX-001 in B-cell Non-Hodgkin Lymphoma and Advanced Solid Malignancies” and registered at clinicaltrials.gov as NCT04836195. It is a phase I dose-escalation study of oral PCLX-001, conducted in a multicenter, non-randomized, open-label, non-controlled design. The study is comprised of two parts: Part A (single-agent dose escalation) and Part B (single-agent expansion cohorts). […]
reportedEndpoint: AUC(0-t) (ng·h/mL)

• Cc1c(NS(=O)(=O)c2c(Cl)cc(-c3ccnc(N4CCNCC4)c3)cc2Cl)c(CC(C)C)nn1C = 7260

====

assay: Phase I trial of oral PCLX-001: plasma pharmacokinetics, noncompartmental analysis (Phoenix WinNonlin 8.3); format: in vivo, human; details: human, plasma, po, 100 mg, Table 9; Patient 115-002-011; Day 15; 100 mg QD oral; Pantoprazole No; read-out: Tmax
reportedEndpoint: Tmax (h)

* Cc1c(NS(=O)(=O)c2c(Cl)cc(-c3ccnc(N4CCNCC4)c3)cc2Cl)c(CC(C)C)nn1C [PCLX-001] | 4

====

assay: Phase I trial of oral PCLX-001: plasma pharmacokinetics, noncompartmental analysis (Phoenix WinNonlin 8.3); assay type: in vivo, human; settings: human, plasma, po, 20 mg, Table 1A; Patient 115-002-004 (Patient 3); Day 15; 20 mg oral daily; read-out: AUClast or AUCtau
reportedEndpoint: AUC(0-t) (ng·h/mL)

• Cc1c(NS(=O)(=O)c2c(Cl)cc(-c3ccnc(N4CCNCC4)c3)cc2Cl)c(CC(C)C)nn1C [PCLX-001] = 1910

====

test: Phase I trial of oral PCLX-001: plasma pharmacokinetics, noncompartmental analysis (Phoenix WinNonlin 8.3); format: in vivo, human; conditions: human, plasma, oral, 40 mg, Table 4; not on Pantoprazole; 40 mg; N 1; Day 1; read-out: t½ (converted)
reportedEndpoint: half-life (h)

• Cc1c(NS(=O)(=O)c2c(Cl)cc(-c3ccnc(N4CCNCC4)c3)cc2Cl)c(CC(C)C)nn1C = 10.8
